Cited source: PubChem BioAssay AID1159580

Reported normalized growth by item:
Test: chemical genetic growth profiling, strain panel (AID 1159580);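 note: tested at 20 µM; growth read once vehicle control cultures reached saturation at 30 °C; 1 = growth at the plate median or of vehicle wells; lower values mean less growth of the strain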
Details: S. cerevisiae deletion strains, growth OD, locus YNL250W, strain rad50, hits give low values
Screen size: about 5,500 compounds; about 2,000 (36%) were called active. Inconclusive results (about 18%) are left out. This is one part of the list.
// response body must contain only the number

Illustrative cases are given below, each with its answer.
COP(N)(=O)SC (stereo not given) ... 1.01
COC1=CC(C)[C@@H]2C[C@H]3OC(=O)C[C@H]4C(C)=C(OC)C(=O)C([C@@]34C)[C@@]2(C)C1=O (stereo not given in full) ... 1.03
O=C(/C=C(\O)c1ccccc1)c1ccccc1O ... 0.97

Ask: Look up normalized growth for this compound: CC(=O)[C@@]1(O)CCC2C3C=C(Cl)C4=CC(=O)[C@@H]5CC5[C@]4(C)C3CC[C@@]21C (stereo not given in full)
Result: 1.01

Ask: Look up normalized growth for this compound: COc1c(O)cc2c(c1O)[C@H]1O[C@H](CO)[C@@H](O)[C@H](O)[C@@H]1OC2=O
Result: 1.02

Ask: Look up normalized growth for this compound: C[N+]1(C)C[C@H](O)[C@H](C(=O)[O-])C1
Result: 0.992

Ask: Look up normalized growth for this compound: CCCCC(=O)O[C@]1(C(=O)CO)[C@@H](C)CC2C3CCC4=CC(=O)C=C[C@]4(C)[C@@]3(F)C(O)C[C@@]21C (stereo not given in full)
Result: 0.978

Ask: Look up normalized growth for this compound: O=C(O)c1ccccc1O
Result: 1

Ask: Look up normalized growth for this compound: NCCCCN
Result: 1.03

###

Test: chemical genetic growth profiling, strain panel (AID 1159580)
Settings: S. cerevisiae deletion strains, growth OD, locus YDR162C, strain NBP2, hits give low values
About 2,000 (36%) of roughly 5,500 compounds were called active. Another 18% or so got no clear call; they are omitted. Some of the results follow.
Sorting guide: entries reporting normalized growth beneath 1 go in the Condition met pile, the rest go in the Condition not met pile.

// below: answered molecules
COC1CC(O[C@H]2CC[C@]3(C=O)C4CC[C@]5(C)C(C6=CC(=O)OC6)CC[C@]5(O)C4CC[C@]3(O)C2)OC(C)C1O (stereo partly drawn) ... Condition not met
Cc1cc(N)c2ccccc2[n+]1CCCCCCCCCC[n+]1c(C)cc(N)c2ccccc21 ... Condition met

Query molecule follows.
Ask: Quick check: normalized growth of O=C(CCCN1CCC(O)(c2ccc(Cl)cc2)CC1)c1ccc(F)cc1 under 1?
Result: Condition met

###

Assay: chemical genetic growth profiling, strain panel (AID 1159580)
Conditions: S. cerevisiae deletion strains, growth OD, locus YGL173C, strain kem1
Among all 5,500 compounds or so, about 2,000 (36%) were called active. Roughly 18% stayed inconclusive and do not appear here. Cut-off read from the data, not from the text of the source: active = normalized growth mostly below about 0.91 (no sharp cut-off); inconclusive = no clear call, values can overlap the other calls; inactive = mostly above about 0.92. The list shows a part of the results.
Reply using exactly one outcome from active, inactive

// below: answered molecules
COC1=CC(C)[C@@H]2C[C@H]3OC(=O)C[C@H]4C(C)=C(OC)C(=O)C([C@@]34C)[C@@]2(C)C1=O (stereo partly drawn) ... inactive
COC1=CC(=O)C=C(OC)C1=O ... inactive
O=S(=O)(O)O ... inactive

Ask: Recorded test call requested for CCCCCC(O)C1C(=O)OC(C)C(O)/C=C/C=C/C=C/C=C/C=C(\C)C(O)CC(O)CC(O)CC(O)CC(O)CC(O)CC1O (stereo not drawn)
Result: inactive

Ask: Recorded test call requested for CCC(=O)OCC(=O)C1(OC(=O)CC)C(C)CC2C3C(Cl)CC4=CC(=O)C=CC4(C)C3C(O)CC21C (stereo not drawn)
Result: inactive

###

Assay: chemical genetic growth profiling, strain panel (AID 1159580);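 note: tested at 20 µM; growth read once vehicle control cultures reached saturation at 30 °C; 1 = growth at the plate median or of vehicle wells; lower values mean less growth of the strain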
Conditions: S. cerevisiae deletion strains, growth OD, locus YOR083W, strain WHI5 (second series), hits give low values
Hit rate of the full screen: of about 5,500 compounds, about 2,000 (36%) were called active. Not shown: some 18% with an inconclusive outcome. The list shows a part of the results.
Sorting guide: entries reporting normalized growth beneath 0.9 go in the 1 pile, the rest go in the -1 pile.

// below: answered molecules
O=C(CCCN1CCC2(CC1)C(=O)N(CCc1ccc(N=C=S)cc1)CN2c1ccccc1)c1ccc(F)cc1 ... -1
Cc1cc(N)c2ccccc2[n+]1CCCCCCCCCC[n+]1c(C)cc(N)c2ccccc21 ... 1

Ask: Quick check: normalized growth of CC(=O)NC(CS)C(=O)O (stereo not given) under 0.9?
Result: -1

Ask: Quick check: normalized growth of O=C(O)C1=CC(=C(c2ccc(O)c(C(=O)O)c2)c2ccc(O)c(C(=O)O)c2)C=CC1=O under 0.9?
Result: -1

###

Test: chemical genetic growth profiling, strain panel (AID 1159580);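 note: tested at 20 µM; growth read once vehicle control cultures reached saturation at 30 °C; 1 = growth at the plate median or of vehicle wells; lower values mean less growth of the strain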
Settings: S. cerevisiae deletion strains, growth OD, locus YCR088W, strain abp1, hits give low values
Out of some 5,500 compounds screened, about 2,000 (36%) were called active. Inconclusive results (about 18%) are left out. This is one part of the list.
metric: normalized growth

Illustrative cases are given below, each with its answer.
CC(C)(C)NCC(O)COc1cccc2c1C[C@H](O)[C@H](O)C2 (some centres undefined) ... 1 (inactive)
COc1cc(C(=O)N2CCOCC2)cc(OC)c1OC ... 0.978 (inactive)
NCCCN ... 0.982 (inactive)
CC1(C)C(O)CC(=O)C2(C)C1CC(O)C1(C)C2CCC2(C)C(c3ccoc3)OC(=O)C3OC321 (centres undefined) ... 0.989 (inactive)
CC(C)c1cccc(C(C)C)c1O ... 0.996 (inactive)
CC(C)c1cccc(O)c(=O)c1 ... 0.0649 (active)

Ask: Look up normalized growth for this compound: O=C(O)CCc1nc(-c2ccccc2)c(-c2ccccc2)o1
Result: 0.962 (inactive)

Ask: Look up normalized growth for this compound: CC(=O)O[C@@H]1c2c(ccc3ccc(=O)oc23)OC(C)(C)[C@@H]1OC(=O)CC(C)C
Result: 0.997 (inactive)

Ask: Look up normalized growth for this compound: C[C@H]1[C@H](C)CC[C@]2(C(=O)O)CC[C@]3(C)C(=CCC4[C@@]5(C)C[C@@H](O)[C@H](O)[C@@](C)(CO)C5CC[C@]43C)[C@H]12 (some centres undefined)
Result: 1.03 (inactive)

###

Reported normalized growth by item:
Test: chemical genetic growth profiling, strain panel (AID 1159580);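 note: tested at 20 µM; growth read once vehicle control cultures reached saturation at 30 °C; 1 = growth at the plate median or of vehicle wells; lower values mean less growth of the strain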
Conditions: S. cerevisiae deletion strains, growth OD, locus YJL134W, strain LCB3, hits give low values
The whole screen tested about 5,500 compounds, of which about 2,000 (36%) were called active. About 18% were inconclusive and are not listed. Some of the results follow.
// response body must contain only the number

CC1(C)[C@@H]2CC[C@@]1(C)C(=O)C2 ... 0.995
NC(=O)c1cc([N+](=O)[O-])cc([N+](=O)[O-])c1 ... 1.01
C[N+]1(C)C[C@H](O)[C@H](C(=O)[O-])C1 ... 1

Ask: Look up normalized growth for this compound: CC1(C)C(=O)CC[C@@]2(C)C1C[C@@H](O)[C@@]1(C)C3=CC(=O)O[C@@H](c4ccoc4)[C@]3(C)CCC21 (some centres not stated)
Result: 1

Ask: Look up normalized growth for this compound: O=C(CCCN1CCC(O)(c2ccc(Cl)cc2)CC1)c1ccc(F)cc1
Result: 0.988

Ask: Look up normalized growth for this compound: CC1(C)Oc2ccc3ccc(=O)oc3c2CC1O (configuration not stated)
Result: 1

Ask: Look up normalized growth for this compound: COc1cc(C)c2c(=O)c3c(O)cc(OC)cc3oc2c1
Result: 1.01

Ask: Look up normalized growth for this compound: NCC(O)CC(=O)O (configuration not stated)
Result: 1.01

Ask: Look up normalized growth for this compound: O=C(O)c1cc(O)ccc1O
Result: 0.984

Ask: Look up normalized growth for this compound: N#Cc1c(Cl)cccc1Cl
Result: 1.01

Ask: Look up normalized growth for this compound: COc1ccc(-c2cc(=O)c3c(O)c(OC)c(O[C@H]4O[C@H](CO[C@@H]5O[C@@H](C)[C@H](O)[C@@H](O)[C@H]5O)[C@@H](O)[C@H](O)[C@H]4O)cc3o2)cc1
Result: 1.02

Ask: Look up normalized growth for this compound: CC[C@H]1CN2CCC1C[C@@H]2[C@@H](O)c1ccnc2ccc(OC)cc12 (some centres not stated)
Result: 0.997

Ask: Look up normalized growth for this compound: COC(=O)[C@H]1[C@H]2C[C@H]3c4[nH]c5cc(OC)ccc5c4CCN3C[C@H]2C[C@@H](OC(=O)c2cc(OC)c(OC)c(OC)c2)[C@@H]1OC
Result: 0.996

Ask: Look up normalized growth for this compound: C/C=C(/C)C(=O)O[C@@H]1Cc2c(ccc3ccc(=O)oc23)OC1(C)C
Result: 0.985

Ask: Look up normalized growth for this compound: CCC(=O)O[C@]1(C(=O)CCl)[C@@H](C)CC2C3CCC4=CC(=O)C=C[C@]4(C)[C@@]3(F)[C@@H](O)C[C@@]21C (some centres not stated)
Result: 0.981
